The values you see were collected from patent US20250170132A1.

assay: Approximate solubility estimation in 24 solvents; format: physicochemical; conditions: organic solvent or mixture, thermodynamic from solid; Dimethoxyethane (DME), RT
reported.metric: solubility

So, CCN(C(=O)c1cc(F)ccc1Oc1cncnc1N1CC2(CCN(C[C@H]3CC[C@H](NS(=O)(=O)CC)CC3)CC2)C1)C(C)C [Compound A monocitrate monohydrate] ? Its solubility was < 2400 µg/mL

----------
experiment: Pharmacokinetics in patients with relapsed or refractory acute leukemia; type: in vivo, human; details: human, plasma, oral, 160 mg/m2, 2 pediatric patients, 160 mg/m^2 without strong CYP3A4 inhibitors; read-out: AUC0-tau, individual patients
reported.metric: AUC
Answer with the value and then the unit.

So, CCN(C(=O)c1cc(F)ccc1Oc1cncnc1N1CC2(CCN(C[C@H]3CC[C@H](NS(=O)(=O)CC)CC3)CC2)C1)C(C)C [Compound A] ? Its AUC was 25600 ng·h/mL

----------
assay: Approximate solubility estimation in 24 solvents; assay type: physicochemical; settings: organic solvent or mixture, thermodynamic from solid; CPME, RT
reported.metric: solubility

So, CCN(C(=O)c1cc(F)ccc1Oc1cncnc1N1CC2(CCN(C[C@H]3CC[C@H](NS(=O)(=O)CC)CC3)CC2)C1)C(C)C [Compound A monocitrate monohydrate] ? Its solubility was < 2100 µg/mL

----------
Assay: Pharmacokinetics in patients with relapsed or refractory acute leukemia
Type: in vivo, human
Details: human, plasma, oral; 276 mg twice daily without strong CYP3A4 inhibitors; read-out: Tmax Median
Source text: The pharmacokinetics of Compound A were characterized in patients with relapsed or refractory acute leukemia following single and multiple oral administration of Compound A with or without strong CYP3A4 inhibitors. Steady-state pharmacokinetic parameters are presented as geometric mean [geometric coefficient of variation (% CV)] unless otherwise specified.
reported.metric: Tmax (h)
One number for each entry, in h.

So, CCN(C(=O)c1cc(F)ccc1Oc1cncnc1N1CC2(CCN(C[C@H]3CC[C@H](NS(=O)(=O)CC)CC3)CC2)C1)C(C)C [Compound A] ? Its Tmax was 1

----------
assay: Approximate solubility estimation in 24 solvents; type: physicochemical; conditions: organic solvent or mixture, thermodynamic from solid; IPA, RT
reported.metric: solubility

So, CCN(C(=O)c1cc(F)ccc1Oc1cncnc1N1CC2(CCN(C[C@H]3CC[C@H](NS(=O)(=O)CC)CC3)CC2)C1)C(C)C [Compound A monocitrate monohydrate] ? Its solubility was < 2800 µg/mL

----------
assay: Approximate solubility estimation in 24 solvents; type: physicochemical; conditions: organic solvent or mixture, thermodynamic from solid; Diethylamine, RT
reported.metric: solubility

So, CCN(C(=O)c1cc(F)ccc1Oc1cncnc1N1CC2(CCN(C[C@H]3CC[C@H](NS(=O)(=O)CC)CC3)CC2)C1)C(C)C [Compound A monocitrate monohydrate] ? Its solubility was 170 to 340 mg/mL

----------
experiment: Approximate solubility estimation in 24 solvents; type: physicochemical; details: aqueous with cosolvent or surfactant or cyclodextrin, thermodynamic from solid; 1-PrOH/water (1/1), heated for few seconds using heat gun
reported.metric: solubility

So, CCN(C(=O)c1cc(F)ccc1Oc1cncnc1N1CC2(CCN(C[C@H]3CC[C@H](NS(=O)(=O)CC)CC3)CC2)C1)C(C)C [Compound A monocitrate monohydrate] ? Its solubility was 161 to 242 mg/mL

----------
assay: Approximate solubility estimation in 24 solvents; assay type: physicochemical; conditions: aqueous with cosolvent or surfactant or cyclodextrin, thermodynamic from solid; Acetone/H2O (9:1 v/v), RT
reported.metric: solubility

So, CCN(C(=O)c1cc(F)ccc1Oc1cncnc1N1CC2(CCN(C[C@H]3CC[C@H](NS(=O)(=O)CC)CC3)CC2)C1)C(C)C [Compound A monocitrate monohydrate] ? Its solubility was 15 to 17.5 mg/mL

----------
assay: Pharmacokinetics in patients with relapsed or refractory acute leukemia; format: in vivo, human; details: human, plasma, oral, 95 mg/m2, pediatric patients, 95 mg/m^2 with strong CYP3A4 inhibitors; read-out: steady-state Cmax, geometric mean (geometric CV %)
reported.metric: Cmax (µg/mL)
Give bare numbers, in µg/mL.

So, CCN(C(=O)c1cc(F)ccc1Oc1cncnc1N1CC2(CCN(C[C@H]3CC[C@H](NS(=O)(=O)CC)CC3)CC2)C1)C(C)C [Compound A] ? Its Cmax was 3.14

----------
experiment: Pharmacokinetics in patients with relapsed or refractory acute leukemia; type: in vivo, human; settings: human, plasma, oral; 163 mg twice daily with strong CYP3A4 inhibitors; steady-state; geometric mean; read-out: AUC0-12 h
reported.metric: AUC(0-t) (ng·h/mL)
One number for each entry, in ng·h/mL.

So, CCN(C(=O)c1cc(F)ccc1Oc1cncnc1N1CC2(CCN(C[C@H]3CC[C@H](NS(=O)(=O)CC)CC3)CC2)C1)C(C)C ? Its AUC(0-t) was 22600

----------
test: Aqueous solubility of Compound A salts; format: physicochemical; conditions: unbuffered water, ambient temperature; read-out: Solubility
reported.metric: solubility

So, CCN(C(=O)c1cc(F)ccc1Oc1cncnc1N1CC2(CCN(C[C@H]3CC[C@H](NS(=O)(=O)CC)CC3)CC2)C1)C(C)C [Compound A monocitrate monohydrate] ? Its solubility was 38.5 mg/mL

----------
experiment: Approximate solubility estimation in 24 solvents; format: physicochemical; settings: organic solvent or mixture, thermodynamic from solid; MEK, RT
reported.metric: solubility

So, CCN(C(=O)c1cc(F)ccc1Oc1cncnc1N1CC2(CCN(C[C@H]3CC[C@H](NS(=O)(=O)CC)CC3)CC2)C1)C(C)C [Compound A monocitrate monohydrate] ? Its solubility was < 2400 µg/mL

----------
assay: Approximate solubility estimation in 24 solvents; type: physicochemical; conditions: organic solvent or mixture, thermodynamic from solid; Chloroform, RT
reported.metric: solubility

So, CCN(C(=O)c1cc(F)ccc1Oc1cncnc1N1CC2(CCN(C[C@H]3CC[C@H](NS(=O)(=O)CC)CC3)CC2)C1)C(C)C [Compound A monocitrate monohydrate] ? Its solubility was < 2300 µg/mL

----------
assay: Approximate solubility estimation in 24 solvents; format: physicochemical; details: organic solvent or mixture, thermodynamic from solid; NMP, RT
reported.metric: solubility

So, CCN(C(=O)c1cc(F)ccc1Oc1cncnc1N1CC2(CCN(C[C@H]3CC[C@H](NS(=O)(=O)CC)CC3)CC2)C1)C(C)C [Compound A monocitrate monohydrate] ? Its solubility was 120 to 240 mg/mL

----------
experiment: Approximate solubility estimation in 24 solvents; format: physicochemical; conditions: organic solvent or mixture, thermodynamic from solid; 2-MeTHF, RT
reported.metric: solubility

So, CCN(C(=O)c1cc(F)ccc1Oc1cncnc1N1CC2(CCN(C[C@H]3CC[C@H](NS(=O)(=O)CC)CC3)CC2)C1)C(C)C [Compound A monocitrate monohydrate] ? Its solubility was < 2900 µg/mL

----------
assay: Approximate solubility estimation in 24 solvents; type: physicochemical; details: organic solvent or mixture, thermodynamic from solid; Heptane, RT
reported.metric: solubility

So, CCN(C(=O)c1cc(F)ccc1Oc1cncnc1N1CC2(CCN(C[C@H]3CC[C@H](NS(=O)(=O)CC)CC3)CC2)C1)C(C)C [Compound A monocitrate monohydrate] ? Its solubility was < 2800 µg/mL

----------
assay: Approximate solubility estimation in 24 solvents; assay type: physicochemical; conditions: organic solvent or mixture, thermodynamic from solid; EtOAc, RT
reported.metric: solubility

So, CCN(C(=O)c1cc(F)ccc1Oc1cncnc1N1CC2(CCN(C[C@H]3CC[C@H](NS(=O)(=O)CC)CC3)CC2)C1)C(C)C [Compound A monocitrate monohydrate] ? Its solubility was < 2300 µg/mL

----------
assay: Approximate solubility estimation in 24 solvents; assay type: physicochemical; settings: aqueous with cosolvent or surfactant or cyclodextrin, thermodynamic from solid; THF/water (1/1), heated for few seconds using heat gun
reported.metric: solubility

So, CCN(C(=O)c1cc(F)ccc1Oc1cncnc1N1CC2(CCN(C[C@H]3CC[C@H](NS(=O)(=O)CC)CC3)CC2)C1)C(C)C [Compound A monocitrate monohydrate] ? Its solubility was 141 to 212 mg/mL

----------
Assay: Pharmacokinetics in patients with relapsed or refractory acute leukemia
Assay type: in vivo, human
Settings: human, in vivo; independent of concentration; read-out: Protein Binding (converted)
Source text: The pharmacokinetics of Compound A were characterized in patients with relapsed or refractory acute leukemia following single and multiple oral administration of Compound A with or without strong CYP3A4 inhibitors. Steady-state pharmacokinetic parameters are presented as geometric mean [geometric coefficient of variation (% CV)] unless otherwise specified.
reported.metric: fraction unbound

So, CCN(C(=O)c1cc(F)ccc1Oc1cncnc1N1CC2(CCN(C[C@H]3CC[C@H](NS(=O)(=O)CC)CC3)CC2)C1)C(C)C ? Its fraction unbound was 0.1

----------
assay: Pharmacokinetics in patients with relapsed or refractory acute leukemia; assay type: in vivo, human; conditions: human, plasma, oral, 95 mg/m2, pediatric patients, 95 mg/m^2 with strong CYP3A4 inhibitors; read-out: steady-state AUC0-tau, geometric mean (geometric CV %)
reported.metric: AUC (ng·h/mL)
Numbers only, in ng·h/mL.

So, CCN(C(=O)c1cc(F)ccc1Oc1cncnc1N1CC2(CCN(C[C@H]3CC[C@H](NS(=O)(=O)CC)CC3)CC2)C1)C(C)C ? Its AUC was 14600
